- experimentalTarget: Cytochrome P450 2C9 (Homo sapiens)
- assay: Cytochrome panel assay with activity outcomes
- conditionLabel: recombinant CYP, pro-luciferin dealkylation, luminescence, p450-cyp2c9; series mostly up to 57.1 µM
Among all 16,000 compounds or so, about 4,000 (25%) were called active. Not shown: some 26% with an inconclusive outcome. Calls follow the shape of the dose curve; as a rule, active = well fitted curve in the direction sought with a large enough effect; inconclusive = small, poorly fitted or top-dose-only effect, or effect the other way; inactive = no such curve, though single readings can be large or run the other way. These entries were drawn from the full list.
Labels: active, inactive

{"compound": "O=C(NC1CCCCC1)C(c1ccccc1)N1CCOCC1 (stereo unspecified)", "group": "inactive"}
{"compound": "Cc1cccc(NC(=O)Cn2c(=O)oc3ccccc32)c1", "group": "inactive"}
{"compound": "COC(=O)N1CCC2(CC1)CN(C(=O)Nc1cccc(C#N)c1)C2", "group": "inactive"}
{"compound": "CCC(CC)C(=O)Nc1ccc(C)c(O)c1", "group": "active"}
{"compound": "Cc1nc(NS(=O)(=O)c2ccc(Br)cc2)c2c3c(sc2n1)CCC3", "group": "active"}
{"compound": "O=C(O)C1CCCCC1C(=O)Nc1ccccc1Cl (stereo unspecified)", "group": "inactive"}

----------
- experimentalTarget: Cytochrome P450 2C9 (Homo sapiens)
- assay: Cytochrome panel assay with activity outcomes
- conditionLabel: recombinant CYP, pro-luciferin dealkylation, luminescence, p450-cyp2c9; series mostly up to 57.1 µM
About 4,000 (25%) of roughly 16,000 compounds were called active. Roughly 26% stayed inconclusive and do not appear here. Calls follow the shape of the dose curve; as a rule, active = well fitted curve in the direction sought with a large enough effect; inconclusive = small, poorly fitted or top-dose-only effect, or effect the other way; inactive = no such curve, though single readings can be large or run the other way. These entries were drawn from the full list.
Labels: active, inactive

{"compound": "COc1ccc(C(=O)Oc2cc(/C=N/NS(=O)(=O)c3ccc(C)cc3)ccc2OC)cc1", "group": "active"}
{"compound": "Cc1ccc(S(=O)(=O)N/N=C/c2ccc(OC3CSC3)cc2)cc1", "group": "active"}
{"compound": "CCOC(=O)C1CCCN(c2ncnc3c2cnn3-c2cccc(C)c2)C1 (configuration not stated)", "group": "active"}
{"compound": "O=[N+]([O-])C1=CC=C2C(=NC3(CCCCC3)N2O)C1=NC1CCCCC1", "group": "active"}
{"compound": "CC(C)CC(=O)Nc1sc2c(c1C#N)CC(C)(C)NC2(C)C", "group": "inactive"}
{"compound": "CCOC(=O)C1CCCN(c2ncnc3c2cnn3-c2ccc(Cl)cc2)C1 (configuration not stated)", "group": "active"}
{"compound": "COc1ccc(/C=N/NC(=S)NC2CCS(=O)(=O)C2)cc1OC (configuration not stated)", "group": "inactive"}
{"compound": "O=C(COc1ccc2ccccc2c1)Nc1ccc(Cc2ccncc2)cc1", "group": "active"}
{"compound": "O=C(COc1ccccc1)Nc1cc(C(F)(F)F)ccc1N1CCCC1", "group": "active"}
{"compound": "COC(=O)C1CCN(CC(=O)Nc2sc3c(c2C#N)CCC3)CC1", "group": "active"}
{"compound": "Cn1ncc([N+](=O)[O-])c1C(=O)N1CCOCC1", "group": "inactive"}
{"compound": "O=C1N/C(=C\\c2ccc(N3CCOCC3)c(F)c2)C(=O)N1Cc1ccccc1", "group": "inactive"}
{"compound": "Cc1cccc(-n2ncc3c(Nc4c(C)n(C)n(-c5ccccc5)c4=O)ncnc32)c1", "group": "inactive"}
{"compound": "CC(C)(C)C(=O)Nc1cccc(-c2nc3ccccc3c(=O)o2)c1", "group": "active"}
{"compound": "COc1cc(/C=C(/C#N)c2nc3ccccc3[nH]2)ccc1Oc1ncccc1[N+](=O)[O-]", "group": "active"}
{"compound": "O=C(COc1ccc2ccccc2c1)NNC(=O)Cc1cccc2ccccc12", "group": "inactive"}
{"compound": "CCSc1nnc(NC(=O)COc2ccc3ccccc3c2)s1", "group": "active"}
{"compound": "NS(=O)(=O)c1cc(C(=O)O)cc(N2CCCC2)c1Oc1ccccc1", "group": "inactive"}
{"compound": "FC(F)(F)c1nnc(-c2ccccc2)nc1Sc1ccccc1", "group": "active"}
{"compound": "Cc1nc2c(C(=O)NCCC(C)C)c[nH]n2c(=O)c1Cc1ccccc1F", "group": "active"}
{"compound": "N#C/C(=C\\c1ccc(Oc2ccc(C(F)(F)F)cc2[N+](=O)[O-])cc1)c1nc2ccccc2[nH]1", "group": "active"}
{"compound": "CCSc1nnc(NC(=O)Cc2ccccc2OC)s1", "group": "inactive"}

Entry source: PubChem BioAssay AID1851
